Values were extracted from patent US20120108501A1.

experiment: Pharmacokinetics of PEGylated protease inhibitor prodrugs in rats; type: in vivo, male Sprague-Dawley rats; settings: prodrug in plasma
Response key: Condition met means t½(z) >= 4 h; Condition not met means t½(z) < 4 h.

Q: Is reported t½(z) greater than or equal to 4 h here: COCCOCCOCCOCCOCCOC(=O)N[C@H](C(=O)N[C@@H](Cc1ccccc1)[C@H](CN(Cc1ccc(-c2ccccn2)cc1)NC(=O)[C@@H](NC(=O)OC)C(C)(C)C)OC(=O)[C@H](Cc1ccccc1)NC(=O)[C@@H](N)Cc1ccccc1)C(C)(C)C.Cl [Phe-Phe-mPEG5-Atazanavir HCl, Phe-Phe-mPEG5-atazanavir hydrochloride]
A: Condition not met

Q: I'd appreciate it if you could say whether CCOCO[C@@H](CN(Cc1ccc(-c2ccccn2)cc1)NC(=O)[C@@H](NC(=O)OC)C(C)(C)C)[C@H](Cc1ccccc1)NC(=O)[C@@H](NC(=O)OCCOCCOCCOC)C(C)(C)C [mPEG3-Atazanavir-methyl ethyl ether, mPEG3-Atazanavir Methyl Ethyl Ether] has t½(z) at least equal to 4 h.
A: Condition met

Q: Given the entry CCOC(CC)OC(CN(Cc1ccc(-c2ccccn2)cc1)NC(=O)C(NC(=O)OC)C(C)(C)C)C(Cc1ccccc1)NC(=O)C(NC(=O)OCCOCCOCCOC)C(C)(C)C (mixture of isomers) [1-ethoxypropoxy-mPEG3-Atazanivir, atazanavir-1-ethoxypropoxy-mPEG3] , answer whether its t½(z) meets or surpasses 4 h.
A: Condition not met

Q: Would you say COCCOCCOCCOCCOCCOC(=O)NC(C(=O)NC(Cc1ccccc1)C(CN(Cc1ccc(-c2ccccn2)cc1)NC(=O)C(NC(=O)OC)C(C)(C)C)OCOC)C(C)(C)C (stereo not shown) [mPEG5-Atazanavir-methyl methyl ether, mPEG5-Atazanavir Methyl Methyl Ether] shows t½(z) at minimum 4 h?
A: Condition met

Q: Does the reported t½(z) for CCOC(=O)O[C@@H](CN(Cc1ccc(-c2ccccn2)cc1)NC(=O)[C@@H](NC(=O)OC)C(C)(C)C)[C@H](Cc1ccccc1)NC(=O)[C@@H](NC(=O)OCCOCCOCCOCCOCCOC)C(C)(C)C.Cl [mPEG5-Atazanavir - Ethyl Carbonate HCl, mPEG5-Atazanavir Ethyl Carbonate] fall at or above the 4 h mark?
A: Condition met

Q: hey, is t½(z) for this one >= 4 h? CCOC(=O)OC(CN(Cc1ccc(-c2ccccn2)cc1)NC(=O)C(NC(=O)OC)C(C)(C)C)C(Cc1ccccc1)NC(=O)C(NC(=O)OCCOCCOCCOC)C(C)(C)C (stereo not shown) [mPEG3-atazanavir ethyl carbonate, mPEG3-Atazanavir Ethyl Carbonate]
A: Condition met

Q: Does t½(z) meet or surpass 4 h for COCCOCCOCCOC(=O)NC(C(=O)NC(Cc1ccccc1)C(CN(Cc1ccc(-c2ccccn2)cc1)NC(=O)C(NC(=O)OC)C(C)(C)C)OC(=O)C(N)CC(C)C)C(C)(C)C.Cl [mono-mPEG3-Atazanavir-L-Leucine, mPEG3-Atazanavir-L-Leucine] ?
A: Condition not met

Q: t½(z) >= 4 h for CCOC(C)OC(CN(Cc1ccc(-c2ccccn2)cc1)NC(=O)C(NC(=O)OC)C(C)(C)C)C(Cc1ccccc1)NC(=O)C(NC(=O)OCCOCCOCCOCCOCCOCCOC)C(C)(C)C (mixture of isomers) [1-ethoxyethoxy-mPEG6-Atazanivir, ethoxy ethoxy mPEG6-atazanavir] ?
A: Condition not met

Q: In plain terms: is recorded t½(z) at least 4 h for CCOC(C)OC(CN(Cc1ccc(-c2ccccn2)cc1)NC(=O)C(NC(=O)OC)C(C)(C)C)C(Cc1ccccc1)NC(=O)C(NC(=O)OCCOCCOCCOCCOCCOC)C(C)(C)C (mixture of isomers) [1-ethoxyethoxy-mPEG5-Atazanivir, ethoxy ethoxy mPEG5-atazanavir] ?
A: Condition not met

Q: Record COCCOCCOCCOC(=O)NC(C(=O)NC(Cc1ccccc1)C(CN(Cc1ccc(-c2ccccn2)cc1)NC(=O)C(NC(=O)OC)C(C)(C)C)OC(=O)CCCC(=O)OC1C(O)C(O)OC1C(O)CO)C(C)(C)C (stereo not shown) ; criterion: t½(z) no lower than 4 h. Met?
A: Condition not met

Q: Determine whether measured t½(z) meets or exceeds 4 h for COCCOCCOCCOCCOCCOCCOC(=O)NC(C(=O)NC(Cc1ccccc1)C(CN(Cc1ccc(-c2ccccn2)cc1)NC(=O)C(NC(=O)OC)C(C)(C)C)OCOC)C(C)(C)C (stereo not shown) [mPEG6-Atazanavir-methyl methyl ether, mPEG6-Atazanavir Methyl Methyl Ether]
A: Condition met

Q: Check this compound for t½(z) at or above 4 h: COCCOCCOCCOCCOCCOC(=O)N[C@H](C(=O)N[C@@H](Cc1ccccc1)[C@H](CN(Cc1ccc(-c2ccccn2)cc1)NC(=O)[C@@H](NC(=O)OC)C(C)(C)C)OC(=O)[C@H](Cc1ccccc1)NC(=O)[C@@H](N)CC(C)C)C(C)(C)C.Cl [Leu-Phe-mPEG5-Atazanavir HCl, Leu-Phe-mPEG5-Atazanavir Hydrochloride]
A: Condition not met

Q: Dear colleague, could you confirm whether CCOC(C)OC(CN(Cc1ccc(-c2ccccn2)cc1)NC(=O)C(NC(=O)OC)C(C)(C)C)C(Cc1ccccc1)NC(=O)C(NC(=O)OCCOCCOCCOC)C(C)(C)C (mixture of isomers) [1-ethoxyethoxy-mPEG3-Atazanivir, ethoxy ethoxy mPEG3-atazanavir] has t½(z) at or above 4 h?
A: Condition not met

Q: Check this compound for t½(z) at or above 4 h: COCCOCCOCCOC(=O)NC(C(=O)NC(Cc1ccccc1)C(CN(Cc1ccc(-c2ccccn2)cc1)NC(=O)C(NC(=O)OC)C(C)(C)C)OC(=O)CCCC(=O)O)C(C)(C)C (stereo not shown) [mPEG3-Atazanavir-glutaric acid]
A: Condition met

Q: Hello, I need to know if COCCOCCOCCOCCOCCOCCOC(=O)NC(C(=O)NC(Cc1ccccc1)C(CN(Cc1ccc(-c2ccccn2)cc1)NC(=O)C(NC(=O)OC)C(C)(C)C)OC(=O)C(N)CC(C)C)C(C)(C)C.Cl [mPEG6-Atazanavir-L-Leucine] has measured t½(z) not below 4 h. Thanks!
A: Condition not met
